- target-or-test-system: Jack bean urease (Canavalia ensiformis)
- Construct: purchased Sigma Aldrich
- Sequence (P07374 whole entry, looked up): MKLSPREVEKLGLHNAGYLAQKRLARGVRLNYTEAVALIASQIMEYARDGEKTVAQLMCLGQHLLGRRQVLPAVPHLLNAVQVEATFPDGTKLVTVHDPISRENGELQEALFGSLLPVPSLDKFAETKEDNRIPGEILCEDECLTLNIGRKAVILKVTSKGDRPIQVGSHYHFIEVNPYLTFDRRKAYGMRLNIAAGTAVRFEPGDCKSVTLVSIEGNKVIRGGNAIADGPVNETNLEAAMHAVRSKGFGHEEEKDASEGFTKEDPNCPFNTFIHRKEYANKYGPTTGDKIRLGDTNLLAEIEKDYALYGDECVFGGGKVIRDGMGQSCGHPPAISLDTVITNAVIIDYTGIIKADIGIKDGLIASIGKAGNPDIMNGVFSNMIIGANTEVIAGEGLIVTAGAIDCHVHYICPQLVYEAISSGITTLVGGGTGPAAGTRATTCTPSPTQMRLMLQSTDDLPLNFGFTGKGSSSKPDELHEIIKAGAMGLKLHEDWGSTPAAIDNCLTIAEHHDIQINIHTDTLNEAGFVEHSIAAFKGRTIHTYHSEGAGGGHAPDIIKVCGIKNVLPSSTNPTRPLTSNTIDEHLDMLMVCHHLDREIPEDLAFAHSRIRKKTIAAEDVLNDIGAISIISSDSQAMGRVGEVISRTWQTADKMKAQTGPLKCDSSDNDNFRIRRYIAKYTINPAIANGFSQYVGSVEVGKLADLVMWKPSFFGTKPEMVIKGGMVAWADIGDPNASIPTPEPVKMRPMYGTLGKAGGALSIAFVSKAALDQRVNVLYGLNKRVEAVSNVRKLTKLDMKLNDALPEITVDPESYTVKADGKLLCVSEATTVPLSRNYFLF
- assay-summary: biochemical
- Type: biochemical
Consider the cut-off 5 µM. If the recorded IC50 is strictly smaller, the label is Yes; if not, the label is No.

Solved entries:
{"columns": ["smiles-repr", "qualitative-label"],
 "data": [
  ["CNS(=O)(=O)Oc1cccc(-c2nc3sccn3c2-c2cccc(S(C)(=O)=O)c2)c1", "Yes"],
  ["CCCS(=O)(=O)Oc1cccc(-c2nc3sccn3c2-c2ccccc2)c1", "Yes"],
  ["CCCS(=O)(=O)Oc1cccc(-c2nc3sccn3c2-c2cccc(S(C)(=O)=O)c2)c1", "Yes"]
]}

Ask: Is IC50 of CS(=O)(=O)c1cccc(-c2c(-c3cccc(OS(=O)(=O)C4CCCCC4)c3)nc3sccn23)c1 strictly below 5 µM?
Reply: Yes

Ask: Is IC50 of O=S(=O)(Oc1cccc(-c2nc3sccn3c2-c2ccccc2)c1)C1CCCCC1 strictly below 5 µM?
Reply: Yes

====

- System: H. pylori
MIC: recorded values
Your answer should be a plain number; it is taken to be in µM.

Ask: Which measured MIC value corresponds to CCCS(=O)(=O)Oc1cccc(-c2nc3sccn3c2-c2ccccc2)c1 [Compound 1c] ?
Reply: 800

Ask: Which measured MIC value corresponds to O=S(=O)(Oc1cccc(-c2nc3sccn3c2-c2ccccc2)c1)C1CCCCC1 [Compound 1d] ?
Reply: 31

Ask: Which measured MIC value corresponds to CCS(=O)(=O)Oc1cccc(-c2nc3sccn3c2-c2ccccc2)c1 [Compound 1b] ?
Reply: 800

Ask: Which measured MIC value corresponds to CS(=O)(=O)c1cccc(-c2c(-c3cccc(OS(N)(=O)=O)c3)nc3sccn23)c1 [Compound 2h] ?
Reply: 400

====

pIC50: recorded values
- Test system: H. pylori
- assay-summary: IC50 against H. pylori, micro broth dilution test
- Format: cell-based, Helicobacter pylori
- condition-parameters: Helicobacter pylori, ATCC43504; H. pylori ATCC 43504, micro broth dilution, 72 h, OD 600 nm; read-out: IC50 value against H. pylori ± SEM
Answer as the number alone; pIC50 is minus log10 of concentration in mol/L.

{"columns": ["compound", "pIC50"],
 "data": [
  ["CS(=O)(=O)c1cccc(-c2c(-c3cccc(OS(=O)(=O)N4CCCCC4)c3)nc3sccn23)c1 [Compound 2j]", 3.54]
]}

Ask: Which measured pIC50 value corresponds to CS(=O)(=O)c1cccc(-c2c(-c3cccc(OS(=O)(=O)c4ccccc4)c3)nc3sccn23)c1 [Compound 2e] ?
Reply: 3.48

Ask: Which measured pIC50 value corresponds to CNS(=O)(=O)Oc1cccc(-c2nc3sccn3c2-c2ccccc2)c1 [Compound 1i] ?
Reply: 3.55

Ask: Which measured pIC50 value corresponds to CNS(=O)(=O)Oc1cccc(-c2nc3sccn3c2-c2cccc(S(C)(=O)=O)c2)c1 [Compound 2i] ?
Reply: 3.91

Ask: Which measured pIC50 value corresponds to O=S(=O)(Oc1cccc(-c2nc3sccn3c2-c2ccccc2)c1)C1CCCCC1 [Compound 1d] ?
Reply: 4.70

Ask: Which measured pIC50 value corresponds to CS(=O)(=O)c1cccc(-c2c(-c3cccc(OS(=O)(=O)C4CCCCC4)c3)nc3sccn23)c1 [Compound 2d] ?
Reply: 4.82

Ask: Which measured pIC50 value corresponds to CS(=O)(=O)Oc1cccc(-c2nc3sccn3c2-c2cccc(S(C)(=O)=O)c2)c1 [Compound 2a] ?
Reply: 3.93

Ask: Which measured pIC50 value corresponds to CS(=O)(=O)c1cccc(-c2c(-c3cccc(OS(=O)(=O)c4ccc(F)cc4)c3)nc3sccn23)c1 [Compound 2f] ?
Reply: 4.64

Ask: Which measured pIC50 value corresponds to CCCS(=O)(=O)Oc1cccc(-c2nc3sccn3c2-c2cccc(S(C)(=O)=O)c2)c1 [Compound 2c] ?
Reply: 3.55

Ask: Which measured pIC50 value corresponds to Cc1ccc(S(=O)(=O)Oc2cccc(-c3nc4sccn4c3-c3cccc(S(C)(=O)=O)c3)c2)cc1 [Compound 2g] ?
Reply: 3.99
